The reported measurements were obtained from the nanobody polyreactivity screen of Harvey et al. (2022).

assay-protocol: yeast display, Sf9 membrane polyspecificity reagent, FACS + sequencing; frameworks hold sequencing errors
measurement-label: polyreactivity (PSR sort gate)

Solved entries:
{"sequence-data": "QVQLVESGGGLVQAGGSLRLSCAASGRNFTIYAMGWYRQAPGKERELVATISSNVGSTYYADSVKGRFTISRDNAKNTVYLQMNSLKPEDTAVYYCNVVPYLYGLDGYDYWGQGTQVTVSS", "measurement-label": "polyreactivity (PSR sort gate)", "data-value": "high polyreactivity"}
{"sequence-data": "QVQLVESGGGLVQAGGSLRLSCAASGRPFSSYAMGWYRQAPGKERELVARINSDGGRTYYADSVKGRFTISRDNAKDTVYLQMNSLKPEDTAVYYCAKRVVRGKVDYWGQGTQVTVSS", "measurement-label": "polyreactivity (PSR sort gate)", "data-value": "low polyreactivity"}
{"sequence-data": "QVQLVESRGGLVQAGRSLRLSCAASGRTFHRNTLGRYRQAPGKERELVAAITGDGRTNYADSVKGRFTISRDNAKNTVYLLMNSLKPEDTAGYYCAAQYYYSEAGRDYWGQGTQVTVSS", "measurement-label": "polyreactivity (PSR sort gate)", "data-value": "low polyreactivity"}
{"sequence-data": "QFQLVESGGGLVQAGGSLRLSCAASGITFRDYAMGWYRQAPGKERELVAAISTRGVRTYYADSVKGRFTISRDNAKNTVYLQMNSLKPEDTAVYYCAARSVTYWWVGYEFYYWGQGTQVTVSS", "measurement-label": "polyreactivity (PSR sort gate)", "data-value": "high polyreactivity"}

Exercise: May I ask what polyreactivity (PSR sort gate) has been recorded for QVQLVESGGGLVQAGGSLRLSCAASGLIFRWYAMGWYRQAPGKERELVAAISRRGGTTNYADSVKGRFTISRDNAKNTVYLQMNSLKPEDTAVYYCAADYQSVGGAEYDYWGQGTQVTVSS ?
Key: high polyreactivity

Exercise: # repeat for QVQLVESGGGLVQAGGSLRLSCAASGSIFWSNAMGWYRQAPGKERELVAAINQSGTSTYYADSVKGRFTISRDNAKNTVYLQMNSLKTEDTAVYYCAADQVGWTYDYWGQGTQVSVSS
Key: low polyreactivity

Exercise: # repeat for QVQLVESGGGLVQAGGSLRLSCAASGSTIKYYAMGWYRQAPGKDRELVAAINWSGDSTYYADSVKGRFTISRDNAKNTVYLQMHSLKPEETAVYYCAVRYQKRAYYGSNYWGQGTQVTVSS
Key: high polyreactivity

Exercise: # repeat for QVQLVESGGGLDQAGGSLRLSCAASGIIFVKYTMGWYIQAPGKERELDAAISRSGGSTYYADSVKGRFTISRDNAKYTVYLQMNSLKPEDTAVYYCNAGARKVYPGPMDYWGQGTQVTVSS
Key: high polyreactivity

Exercise: # repeat for QVQLVESGGGLVQAGGSLRLSCAASGRTFPYNAMGWYRQAPGKERELVAGITGGGSTYYADSVKGRFTISRDNAKKTVYLQMNSLKPEDTAVYYCAADRYFLYGTYPDVEFNYWGQGTQVTVSS
Key: high polyreactivity

Exercise: # repeat for QVQLEESGGGLVQARVSLRLSSAASGFTLWNYAMGLYRQAPGKERELVAGINSGGRTYYADSVKGRFTISRDNAKNTVYLQMKSLKPEDTAVFYCNARGWSSFSHNSYFMDYWGQGTQVTVSS
Key: high polyreactivity

Exercise: # repeat for QVQLVESGGGLVQAGGSLRLSCAASGSTFGYNAMGWYRQAPGKERELVAAITYRGSTYYADSVKGRFTISRDNAKNTVYLQMNSLKPEDTAVYYCATQGARYYHTYGYWGQGTQVTVSS
Key: low polyreactivity

Exercise: # repeat for QVQLVESGGGLVQAGGSLRLSCAASGFAVSYYAMAWYRQAPGKEREFVASSDWSGGSTYYADSVKGRFTISRDNAKNTVYLQMNSLKPEYTAVYYCAAELVYFPGYDYWGQGTQVTVSS
Key: low polyreactivity

Exercise: # repeat for QVQLVESGGGLVQAGGSLRLSCAASGFIFPFYAMGWYRQAPGKERELGASITWSGSTYADSVKGRFTISRDNAKNTVYLQMNSLKPEDTAVYYCNTDPRSVVGWYAYWGQGTQVTVSS
Key: low polyreactivity

Exercise: # repeat for QVQLVESGGGLVQAGGSLRLSCAASGRIFQYYAMGWYRQAPGKERELVATITSTGSTYYADSVKGRFTISRDNAKNTVYLQMNSLKPEDTAVYYCNADPWGIYETFGDHDYWGQGTQVTVSS
Key: low polyreactivity

Exercise: # repeat for QVQLVESGGGLVQAGGSLRLSCAASGNTLVKNAMGWYRQAPGKERELVAANSSSGGRTYYADSVKGRFTISRDNAKTTVYLQLNSLKPEDTAVYYCAARYPSGYYYWGQGTQVTVSS
Key: high polyreactivity

Exercise: # repeat for QVQLVESGGGLVQAGGSLRLSCAASGRIFYSNTMGWYRQAPGKERELVARIDTGGGSTYADSVKGRFTISRDNAKNTVYLQMNSLKPEDTAVYYCNKKGRWRSWGSTSMVSMDYWGQGTQVTVSS
Key: low polyreactivity

Exercise: # repeat for QVQLVESGGGLVQAGGSLRLSCAASGGIFQPNAMGWYRQAPGKERELVASISSDGSTNYADSVKGRFTISRDNAKNTVYLQMTSLKPEDTAVYYCAAAVKRGYAQSFISDGYGYWGQGTQVTVSS
Key: low polyreactivity

Exercise: # repeat for QVQLVESGGGLVQAGGSLRLSCAASGRTFRPYAMGWYRQAPGKERELVAAITTTGRTYYADSVKGRFTISRDNAKNTVYLQMNSLKPEDTAVYDCNAVAYPSPHYWRYYYWGQGTQVTVSS
Key: high polyreactivity

Exercise: # repeat for QVQLVESGGGLVQAGGSLRLSCAASGRIFAVNAMGWYRQAPGTERELVAAITNVASTKYADSVKGRFTISRDNAKNTVYLQMNSLKQEDTAVYYCNADLSQEDWKMDYWGQGTQVTVSS
Key: low polyreactivity

Exercise: # repeat for QVQLVESWGGLVQAGGSLRLSCAASGRTFSRYAMGWYRQAPRKERELVAAISSRGGSTYYADSVKGRFTISRDFANNTVYLQMNSLYPEDTAVYYCNADSKVDPYGYDYWGQGTQVTVSS
Key: high polyreactivity

Exercise: # repeat for QVQLVESGGGLVQAGGSLRLSCAASGGTLRRYAMGWYRQAPGKERELVAAIIDRSGSTSYADSVKGRFTISRDNAKNTVYLQMNSLKPEDTAVYYCAARTYRTRYYYWGQGTQVTVSS
Key: high polyreactivity
